Tested on: NCI-H460
Assay: Anti-cancer screen (MTT), NCI-H460
Format: cell-based
Conditions: Homo sapiens, NCI-H460; 48 hours, MTT
We label by threshold. Values of GI50 strictly beneath 3000 nM are true (1). Values of 3000 nM and up are false (0).

SMILES REPR | CLASS
CNc1nc(-c2ccc(SC)cc2)nc(SC)c1C(=O)Nc1ccc(OC)cc1 | false (0)
CNc1nc(-c2ccncc2)nc(SC)c1C(=O)Nc1ccc(C)c(C)c1 | false (0)
CNc1nc(-c2ccncc2)nc(SC)c1C(=O)Nc1ccc(OC)cc1 | false (0)
CNc1nc(-c2ccncc2)nc(SC)c1C(=O)Nc1ccc(C)cc1 | false (0)
CSc1ccc(-c2nc(NN)c(C(=O)Nc3ccc(C)c(C)c3)c(SC)n2)cc1 | false (0)
CNc1nc(-c2ccc(SC)cc2)nc(SC)c1C(=O)Nc1ccc(C)cc1C | true (1)
CCc1ccc(NC(=O)c2c(NC)nc(-c3ccncc3)nc2SC)cc1 | true (1)
CNc1nc(-c2ccncc2)nc(SC)c1C(=O)Nc1ccc(C(C)C)cc1 | true (1)
CNc1nc(-c2ccc(F)cc2)nc(SC)c1C(=O)Nc1ccc(SC)cc1 | true (1)
CSc1nc(-c2ccncc2)nc(NCCO)c1C(=O)Nc1ccc(C)cc1 | false (0)
CCOc1ccc(NC(=O)c2c(NC)nc(-c3ccc(SC)cc3)nc2SC)cc1 | true (1)
CSc1nc(-c2ccncc2)nc(NCCO)c1C(=O)Nc1ccc(Br)cc1 | true (1)
CSc1nc(-c2ccncc2)nc(NCCO)c1C(=O)Nc1ccc(Cl)cc1 | true (1)
CNc1nc(-c2ccc(N(C)C)cc2)nc(SC)c1C(=O)Nc1ccc(OC)cc1 | false (0)
CNc1nc(-c2ccncc2)nc(SC)c1C(=O)Nc1ccc(F)cc1 | true (1)
